molecular target: Dual specificity protein kinase CLK1 (Homo sapiens, UniProt P49759); test: biochemical; format: cell-based, Sf9; details: read-out: IC50
Sequence (P49759 whole entry): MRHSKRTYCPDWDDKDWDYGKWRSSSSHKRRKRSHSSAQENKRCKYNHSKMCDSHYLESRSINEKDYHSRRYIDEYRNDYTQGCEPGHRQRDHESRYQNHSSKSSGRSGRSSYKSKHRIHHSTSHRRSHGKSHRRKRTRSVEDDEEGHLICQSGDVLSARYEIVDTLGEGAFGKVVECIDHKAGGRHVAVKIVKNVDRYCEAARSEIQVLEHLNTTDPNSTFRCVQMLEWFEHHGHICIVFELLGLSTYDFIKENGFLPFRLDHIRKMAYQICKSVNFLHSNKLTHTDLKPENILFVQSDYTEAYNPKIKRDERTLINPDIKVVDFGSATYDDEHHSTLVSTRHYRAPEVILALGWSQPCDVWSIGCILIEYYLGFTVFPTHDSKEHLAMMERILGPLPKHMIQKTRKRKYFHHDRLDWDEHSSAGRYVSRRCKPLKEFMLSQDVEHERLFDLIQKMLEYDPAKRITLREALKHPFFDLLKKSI
RESULT_TYPE: IC50 (nM)

{"SMILES_STRING": "CC(C)CN1CCC(C(=O)Nc2cc3cc(-c4cnn(C)c4)ccc3cn2)CC1", "ASSAY_RESULT": 15}

(A) CCNc1cc(Nc2ccc(C(=O)N3CCC(N4CCOCC4)CC3)cc2OC)nc2[nH]cc(C(F)(F)F)c12
(B) COc1ccc2sc(-c3cncc(NC(C)=O)c3)nc2c1
input: Given the listed records, identify the one among A and B with higher IC50. Mark your answer with the label of the selected entry.
output: B

###

Target: Dual specificity tyrosine-phosphorylation-regulated kinase 2 (Homo sapiens, UniProt Q92630)
Sequence (Q92630 whole entry): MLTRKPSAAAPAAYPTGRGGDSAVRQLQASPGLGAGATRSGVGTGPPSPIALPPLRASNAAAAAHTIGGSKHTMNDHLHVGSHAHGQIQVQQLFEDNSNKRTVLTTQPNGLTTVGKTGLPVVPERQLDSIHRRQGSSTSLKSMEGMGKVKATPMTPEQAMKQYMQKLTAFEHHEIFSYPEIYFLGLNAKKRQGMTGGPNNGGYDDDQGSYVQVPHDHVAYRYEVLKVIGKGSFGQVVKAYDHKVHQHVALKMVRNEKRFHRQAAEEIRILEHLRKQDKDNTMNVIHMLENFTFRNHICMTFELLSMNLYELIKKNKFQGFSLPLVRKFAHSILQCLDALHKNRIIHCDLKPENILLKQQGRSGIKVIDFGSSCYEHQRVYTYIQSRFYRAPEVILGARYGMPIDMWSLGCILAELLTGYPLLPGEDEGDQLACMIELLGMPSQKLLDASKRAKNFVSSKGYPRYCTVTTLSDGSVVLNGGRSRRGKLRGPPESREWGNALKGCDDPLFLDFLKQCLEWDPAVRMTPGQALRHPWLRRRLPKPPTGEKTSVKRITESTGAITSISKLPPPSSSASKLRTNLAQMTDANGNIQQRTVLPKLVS
Assay: biochemical
RESULT_TYPE: IC50

Examples from the recorded data:
{"COMPOUND": "CCOc1ccc2nc(N3CCCN(C(=S)Nc4ccccc4F)CC3)c(C#N)cc2c1", "IC50": "> 10 µM"}
{"COMPOUND": "COc1cc(CCc2c(O)ccc(O[C@@H]3O[C@H](CO)[C@@H](O)[C@H](O)[C@H]3O)c2C(C)=O)ccc1O [SCORZODIHYDROSTILBENE A]", "IC50": "> 10 µM"}

input: If you can, please state the reported IC50 value of `CCN(CC)Cc1ccc(OC)c(-c2cc3c(-c4ccc(C(=O)O)c(C(C)C)c4)ccnc3[nH]2)c1` .
output: > 10 µM

###

Reported IC50 for target or system Dual specificity protein kinase CLK2 (Homo sapiens, UniProt P49760), by entry.
RESULT_TYPE: IC50 (µM)

Examples from the recorded data:
{"COMPOUND": "COc1ccc2c(c1)[nH]c1c(C)nccc12", "UNITS_LABEL": "µM", "IC50": 1.15}
{"COMPOUND": "O=c1c2c(O)cc(O)cc2oc2c(O)ccc(O)c12", "UNITS_LABEL": "µM", "IC50": 1.7}
{"COMPOUND": "CN1C(=O)/C(=C/c2ccc3c(c2)OCO3)N=C1N", "UNITS_LABEL": "µM", "IC50": 3.09}
{"COMPOUND": "CCNc1cc(Nc2ccc(C(=O)N3CCC(N4CCOCC4)CC3)cc2OC)nc2[nH]cc(C(F)(F)F)c12", "UNITS_LABEL": "µM", "IC50": 0.0405}

(I) [H]/N=C(\N/C(=N/[H])NCCCCCCNC(=N)NC(=N)Nc1ccc(Cl)cc1)Nc1ccc(Cl)cc1
(II) CCN1/C(=C/C(C)=O)Sc2ccc(O)cc21
(III) Cn1cc(-c2ccc3cnc(NC(=O)C4CCN(S(C)(=O)=O)CC4)cc3c2)cn1
(IV) COC1=CC2C(=O)NC3=Cc4ccc(OC)cc4C(=C1OC)C32 (stereo unspecified)
input: Your job: order these 4 records by IC50, ascending. A complete answer lists every label in the requested sequence.
output: IV, III, II, I

###

target: Dual specificity protein kinase CLK4 (Homo sapiens)
Sequence (Q9HAZ1 whole entry): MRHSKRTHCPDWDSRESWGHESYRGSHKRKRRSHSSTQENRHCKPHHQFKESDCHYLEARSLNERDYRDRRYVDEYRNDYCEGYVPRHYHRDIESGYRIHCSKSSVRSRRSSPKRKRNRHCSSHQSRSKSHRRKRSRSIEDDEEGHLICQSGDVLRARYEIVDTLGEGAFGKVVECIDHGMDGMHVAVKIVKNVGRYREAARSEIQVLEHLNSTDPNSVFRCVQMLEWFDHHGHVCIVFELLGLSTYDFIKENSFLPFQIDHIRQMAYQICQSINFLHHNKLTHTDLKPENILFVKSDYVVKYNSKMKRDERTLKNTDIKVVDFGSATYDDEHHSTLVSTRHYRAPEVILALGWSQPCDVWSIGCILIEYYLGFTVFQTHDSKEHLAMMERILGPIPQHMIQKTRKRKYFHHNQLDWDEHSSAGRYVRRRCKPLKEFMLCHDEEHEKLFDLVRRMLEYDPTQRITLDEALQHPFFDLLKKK
IC50 values for the compounds below.

Examples from the recorded data:
{"COMPOUND": "CC(C)(c1ccc(O)cc1)c1ccc(O)cc1 [BISPHENOL A]", "IC50": "> 10 µM"}
{"COMPOUND": "COc1ccc(/C=C2\\SC(=S)NC2=O)cc1C#C[Si](C)(C)C", "IC50": "> 10 µM"}

Now for a further compound.
input: For Dual specificity protein kinase CLK4 (Homo sapiens), provide IC50 of `CCOc1ccc2nc(N3CCCN(C(=S)Nc4ccccc4F)CC3)c(C#N)cc2c1` please.
output: > 10 µM

###

molecular target: Cyclin-dependent kinase 5/CDK5 activator 1 (Homo sapiens, UniProt Q00535); assay: biochemical
Sequence (Q00535 whole entry): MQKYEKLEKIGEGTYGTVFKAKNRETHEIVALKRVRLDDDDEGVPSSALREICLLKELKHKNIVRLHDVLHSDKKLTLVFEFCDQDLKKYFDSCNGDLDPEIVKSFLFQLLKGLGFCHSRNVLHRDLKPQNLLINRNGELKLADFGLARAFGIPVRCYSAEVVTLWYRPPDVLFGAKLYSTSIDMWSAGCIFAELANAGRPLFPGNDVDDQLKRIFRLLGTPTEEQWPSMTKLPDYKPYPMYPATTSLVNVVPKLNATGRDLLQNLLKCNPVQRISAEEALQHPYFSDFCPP
Sequence (Q15078 whole entry, further chain): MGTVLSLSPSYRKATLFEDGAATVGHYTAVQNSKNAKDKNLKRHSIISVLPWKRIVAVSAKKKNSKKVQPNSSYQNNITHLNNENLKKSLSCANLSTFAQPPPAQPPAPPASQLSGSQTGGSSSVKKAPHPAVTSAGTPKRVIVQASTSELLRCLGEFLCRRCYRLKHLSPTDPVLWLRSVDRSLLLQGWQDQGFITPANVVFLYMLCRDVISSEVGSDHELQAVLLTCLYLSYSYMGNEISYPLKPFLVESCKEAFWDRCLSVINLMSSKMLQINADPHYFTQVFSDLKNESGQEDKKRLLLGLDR
IC50 values for the compounds below.

input: If you can, please state the reported IC50 value of `COc1ccc(-n2c(C)c([N+](=O)[O-])c3ccc(O)cc32)cc1` .
output: > 10 µM

###

molecular target: Dual specificity protein kinase CLK1 (Homo sapiens); experiment: biochemical; format: cell-based, Sf9
pIC50: −log10 of the molar value.
pIC50 values for the compounds below.

Examples from the recorded data:
{"COMPOUND": "CC(C)(c1ccc(O)cc1)c1ccc(O)cc1 [BISPHENOL A]", "TARGET_UNDER_TEST": "Dual specificity protein kinase CLK1 (Homo sapiens)", "RESULT_TYPE": "pIC50", "ASSAY_RESULT": "< 5.00"}
{"COMPOUND": "COc1cc(CCc2c(O)ccc(O[C@@H]3O[C@H](CO)[C@@H](O)[C@H](O)[C@H]3O)c2C(C)=O)ccc1O [SCORZODIHYDROSTILBENE A]", "TARGET_UNDER_TEST": "Dual specificity protein kinase CLK1 (Homo sapiens)", "RESULT_TYPE": "pIC50", "ASSAY_RESULT": "< 5.00"}
{"COMPOUND": "COc1cc(/C=C/C(=O)CC(=O)/C=C/c2ccc(O)c(OC)c2)ccc1O [CURCUMIN]", "TARGET_UNDER_TEST": "Dual specificity protein kinase CLK1 (Homo sapiens)", "RESULT_TYPE": "pIC50", "ASSAY_RESULT": "< 5.00"}

input: If you can, please state the reported pIC50 value of `CC(=O)c1nccc2c1[nH]c1ccccc12` .
output: < 5.00

input: Queued: `CCOc1ccc2nc(N3CCCN(C(=S)Nc4ccccc4F)CC3)c(C#N)cc2c1`
output: < 5.00

input: Queued: Cc1cc(C(=O)NC2Nc3cccc(C)c3N2[C@H]2CCCCN(C(=O)/C=C/CN(C)C)C2)ccn1 (some centres not stated)
output: < 5.00

input: Queued: CNCc1ccc(-c2[nH]c3cc(F)cc4c3c2CCNC4=O)cc1 [RUCAPARIB]
output: < 5.00

###

IC50 values for the compounds below.
biological target: Dual specificity protein kinase CLK3 (Homo sapiens, UniProt P49761); assay: biochemical
Sequence (P49761 whole entry): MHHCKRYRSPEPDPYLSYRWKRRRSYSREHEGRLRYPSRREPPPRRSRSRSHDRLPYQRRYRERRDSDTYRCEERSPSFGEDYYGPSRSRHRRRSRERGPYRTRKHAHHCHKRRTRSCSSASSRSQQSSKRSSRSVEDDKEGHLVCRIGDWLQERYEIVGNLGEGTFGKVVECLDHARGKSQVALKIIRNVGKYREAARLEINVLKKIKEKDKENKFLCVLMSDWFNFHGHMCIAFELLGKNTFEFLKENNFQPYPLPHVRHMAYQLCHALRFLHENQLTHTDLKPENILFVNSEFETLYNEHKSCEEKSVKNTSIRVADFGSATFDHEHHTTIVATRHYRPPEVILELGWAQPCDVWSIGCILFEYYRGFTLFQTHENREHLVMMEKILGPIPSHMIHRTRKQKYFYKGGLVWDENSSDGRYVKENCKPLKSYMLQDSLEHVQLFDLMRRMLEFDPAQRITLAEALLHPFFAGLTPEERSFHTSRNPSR

Examples from the recorded data:
{"SMILES_STRING": "COc1cc(/C=C/C(=O)CC(=O)/C=C/c2ccc(O)c(OC)c2)ccc1O", "IC50": "> 10 µM"}
{"SMILES_STRING": "Cc1cccc(N(C)c2nccc(-c3cnn4ncccc34)n2)c1", "IC50": "> 10 µM"}

Now for a further compound.
input: If you can, please state the reported IC50 value of `COc1ccc2sc(-c3cncc(NC(C)=O)c3)nc2c1` .
output: > 10 µM

###

Reported pIC50 for target or system Dual specificity protein kinase CLK4 (Homo sapiens), by entry.
In plain terms, pIC50 is the concentration in mol/L turned into minus its base-10 logarithm.

Examples from the recorded data:
{"COMPOUND": "Cc1ccc([N+](=O)[O-])cc1S(=O)(=O)N(C)/N=C/c1cnc2ccc(Br)cn12", "pIC50": 8.16}
{"COMPOUND": "COc1cc(N2CCN(C)CC2)ccc1Nc1nccc(-c2cn(C)c3cnccc23)n1", "pIC50": 6.39}
{"COMPOUND": "O=C(O[C@@H]1Cc2c(O)cc(O)cc2O[C@@H]1c1cc(O)c(O)c(O)c1)c1cc(O)c(O)c(O)c1 [EPIGALOCATECHIN GALLATE]", "pIC50": 6.43}

Now for a further compound.
input: If you can, please state the reported pIC50 value of `CN1C(=O)/C(=C/c2ccc3c(c2)OCO3)N=C1N` .
output: 6.40

###

target: Casein kinase I isoform epsilon (Homo sapiens, UniProt P49674); test: biochemical
Sequence (P49674 whole entry, canonical isoform): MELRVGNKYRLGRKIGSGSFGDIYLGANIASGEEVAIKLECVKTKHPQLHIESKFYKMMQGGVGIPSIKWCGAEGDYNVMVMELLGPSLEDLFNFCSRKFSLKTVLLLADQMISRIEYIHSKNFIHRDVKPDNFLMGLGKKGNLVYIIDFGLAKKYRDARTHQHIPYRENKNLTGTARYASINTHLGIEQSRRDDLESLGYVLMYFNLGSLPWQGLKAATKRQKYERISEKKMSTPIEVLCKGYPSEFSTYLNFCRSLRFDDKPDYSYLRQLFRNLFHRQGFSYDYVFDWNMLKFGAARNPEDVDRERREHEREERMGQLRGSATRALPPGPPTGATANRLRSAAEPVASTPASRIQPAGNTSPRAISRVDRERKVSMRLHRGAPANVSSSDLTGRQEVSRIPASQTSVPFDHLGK
RESULT_TYPE: IC50

Examples from the recorded data:
{"MOLECULE": "CNCc1ccc(-c2[nH]c3cc(F)cc4c3c2CCNC4=O)cc1", "TARGET_UNDER_TEST": "Casein kinase I isoform epsilon (Homo sapiens, UniProt P49674)", "IC50": "> 10 µM"}
{"MOLECULE": "Oc1ccc(-c2cnc3[nH]cc(-c4ccc(F)cc4)c3c2)cc1O", "TARGET_UNDER_TEST": "Casein kinase I isoform epsilon (Homo sapiens, UniProt P49674)", "IC50": "> 10 µM"}
{"MOLECULE": "Cc1cccc(N(C)c2nccc(-c3cnn4ncccc34)n2)c1", "TARGET_UNDER_TEST": "Casein kinase I isoform epsilon (Homo sapiens, UniProt P49674)", "IC50": "> 10 µM"}
{"MOLECULE": "CCN(CC)Cc1ccc(OC)c(-c2cc3c(-c4ccc(C(=O)O)c(C(C)C)c4)ccnc3[nH]2)c1", "TARGET_UNDER_TEST": "Casein kinase I isoform epsilon (Homo sapiens, UniProt P49674)", "IC50": "> 10 µM"}
{"MOLECULE": "COc1ccc(-n2c(C)c([N+](=O)[O-])c3ccc(O)cc32)cc1", "TARGET_UNDER_TEST": "Casein kinase I isoform epsilon (Homo sapiens, UniProt P49674)", "IC50": "> 10 µM"}
{"MOLECULE": "O=C1Nc2cc(S(=O)(=O)Cc3c(Cl)cccc3Cl)ccc2S/C1=C\\c1ccc(O)c([N+](=O)[O-])c1", "TARGET_UNDER_TEST": "Casein kinase I isoform epsilon (Homo sapiens, UniProt P49674)", "IC50": "4.38 µM"}
{"MOLECULE": "CCN1/C(=C/C(C)=O)Sc2ccc(O)cc21", "TARGET_UNDER_TEST": "Casein kinase I isoform epsilon (Homo sapiens, UniProt P49674)", "IC50": "2.98 µM"}
{"MOLECULE": "CCNc1cc(Nc2ccc(C(=O)N3CCC(N4CCOCC4)CC3)cc2OC)nc2[nH]cc(C(F)(F)F)c12", "TARGET_UNDER_TEST": "Casein kinase I isoform epsilon (Homo sapiens, UniProt P49674)", "IC50": "7.99 µM"}

input: If you can, please state the reported IC50 value of `O=C(O)c1ccc2c(c1)nc(Nc1cccc(Cl)c1)c1ccncc12` .
output: > 10 µM

input: Queued: O=C(O[C@@H]1Cc2c(O)cc(O)cc2O[C@@H]1c1cc(O)c(O)c(O)c1)c1cc(O)c(O)c(O)c1 [EPIGALOCATECHIN GALLATE]
output: 0.365 µM

input: Queued: `CC(C)(c1ccc(O)cc1)c1ccc(O)cc1`
output: > 10 µM

Provenance of the data: ChEMBL document CHEMBL5247649
